Source listed as patent US20070202045A1.

# system_name: T1, rat albumin (rat, UniProt P02770 25-608)
# T1 construct: bought (Sigma); also called rat SA; RSA
# assay_info: SPR (BIAcore), albumin immobilized
pKd: −log10 of the molar value. Bridges are numbered along the chain shown (N, C = ends). Where no end group is shown, it is not given here.
pKd by entry:
observation_type: pKd

[[record]]
binder = "Ac-QGLIGDICLPRWGCLWGDSVK-NH2 (disulfide 8-14 (inferred), synthetic; disulfide oxidised) [SA08]"
observed_result = 6.80

[[record]]
binder = "GEWWEDICLPRWGCLWEEED-NH2 (disulfide 8-14 (inferred), synthetic) [SA15]"
observed_result = 6.82

[[record]]
binder = "QRLMEDICLPRWGCLWEDDF-NH2 (disulfide 8-14, synthetic; disulfide oxidised) [SA06]"
observed_result = 6.64

